Test system: HeLa cells
Assay: Compound screen by flow cytometry: HeLa cell count as surrogate readout of cell viability (z-scoreHeLa)
Format: cell-based, human
Settings: compound screen, HeLa cell count, replicate 3
We begin with a simple list: items and their reported z-scoreHeLa rep 3.
Please respond with just the number, no unit label.

Solved entries:
- compound: "N#Cc1ccc(CCNc2nccc(-c3cccc(CN4CCNCC4)c3)n2)cc1 [GSK2137462A]"
  z-scoreHeLa rep 3: 4.11
- compound: "CN(c1ccc(NC(=O)Nc2cccc(Cl)c2)cc1)c1ccnc(N)n1 [GW830707A]"
  z-scoreHeLa rep 3: -0.56
- compound: "c1ccc(-c2n[nH]cc2-c2ccnc(-c3ccc(CNC4CCOCC4)cc3)c2)nc1 [GW709213X]"
  z-scoreHeLa rep 3: 0.76
- compound: "COc1ccc2[nH]c3c4[nH]c5ccc(OC)cc5c4c4c(c3c2c1)C(=O)NC4=O [GW296115X]"
  z-scoreHeLa rep 3: -0.00316
- compound: "Cc1cc(-c2ccnc(Nc3cccc(C#N)c3)n2)cc(C)c1O [GSK1440913A]"
  z-scoreHeLa rep 3: 0.32
- compound: "Cc1ccnc2ccc(-c3sc(N)nc3-c3ccccn3)nc12 [GW777257X]"
  z-scoreHeLa rep 3: -1.02
- compound: "CS(=O)(=O)Nc1ccc(N/C=C2\\C(=O)Nc3ccccc32)cc1 [GW278681X]"
  z-scoreHeLa rep 3: -0.16
- compound: "CS(=O)(=O)CCNCc1nc(-c2ccc3ncnc(Nc4ccc(OCc5cccc(F)c5)c(Cl)c4)c3c2)cs1 [GW583340C]"
  z-scoreHeLa rep 3: 1.22

State, in one line, measured z-scoreHeLa rep 3 of CN(c1ccc2c(c1)nc(NCc1ccccc1)n2C)c1ccnc(Nc2ccc(CS(C)(=O)=O)cc2)n1 [GW811603A]
-0.57

State, in one line, measured z-scoreHeLa rep 3 of Cc1c2ccc(N(C)c3ccnc(Nc4cccc(S(N)(=O)=O)c4)n3)cc2nn1Cc1ccccc1 [GW787226A]
-2.51

###

Tested on: HeLa cells
Experiment: Compound screen by flow cytometry: HeLa cell count as surrogate readout of cell viability (z-scoreHeLa)
Assay type: cell-based, human
Details: PKIS compound screen, HeLa cell count, replicate 3
Procedure: The cells were resuspended in cell culture medium without antibiotics, seeded with 10,000 cells/well into Costar flat-bottom 96-well plates (Corning, Amsterdam, the Netherlands), and were incubated overnight at 37°C/5% CO2. […] The calculated mean MOI throughout all experiments was 6.8 ± 4.6 (mean ± SD). […] HeLa cells were harvested by trypsinization and fixed with 1% paraformaldehyde. Samples were measured on a FACSLyric with HTS extension (BD Biosciences). […]
We begin with a simple list: items and their reported z-scoreHeLa rep 3.
Please respond with just the number, no unit label.

Solved entries:
- compound: "CC(C)(C)c1ccc2nccc(Nc3cccc(O)c3)c2c1 [GW856795X]"
  z-scoreHeLa rep 3: -0.73
- compound: "COc1cc(C)c(N(C)C(=O)CN(C)C)cc1Nc1nc(Nc2cccc(F)c2C(N)=O)c2cc[nH]c2n1 [GSK2219385A]"
  z-scoreHeLa rep 3: -0.31
- compound: "COc1ccc(Nc2nccc(N3CCC(NC(=O)C(C)c4ccc(Cl)cc4)CC3)n2)cc1 (stereo not shown) [GSK1379812A]"
  z-scoreHeLa rep 3: 0.36

Proceed to the following item.
State, in one line, measured z-scoreHeLa rep 3 of `CN1CCC(n2cnc(-c3ccc(F)cc3)c2-c2ccnc(Nc3ccccc3)n2)CC1`
0.04
